Listing of recorded Mean relative activity by entry.
- Test system: K562 CRISPRi cells
- Test Details: Constant region variant library pooled growth screen, K562
- Type: cell-based, human
- Test Settings: sgRNA constant region variants; relative to the original, un-modified constant region cr995 (= 1)
Reported Endpoint: Mean relative activity

>>> assay_value("cr698 (nucleic acid, listed as DNA, chemistry not fully specified) guide: GTTTAAGAGCTAAGCTGGAAACAGCATAACAAGTTTAAATAAGGCTAGTCCGTAATCAACTTGTAAAAGTGGCACCGAGTCGGTGCT")
0.9956
>>> assay_value("cr423 (nucleic acid, listed as DNA, chemistry not fully specified) guide: GTTTAAGAGCTAAGCTGGAAACAGCATAGCAAGTTTAAATAAGGCTAGTCCGTTATCAGCTTGAAAAAGCGGTACCGAGTCGGTACT")
1.012
>>> assay_value("cr604 (nucleic acid, listed as DNA, chemistry not fully specified) guide: GTTTAAGAGCTAAGCTGGAAACAGCATAGCAAGTTTAAATAAGGCAAGTCCGTTATCAACTTGACAAAGTGGCACCGAGTCGGTGCT")
0.9912
>>> assay_value("cr973 (nucleic acid, listed as DNA, chemistry not fully specified) guide: GTTTAAGAGCTAAGCTGGAAACAGCATAGCAAGTTTAAATAAGGCTAGTCCGTTATCAACTTAAAAAAGTGGCACCGAGTCGGTGCT")
0.9873
>>> assay_value("cr888 (nucleic acid, listed as DNA, chemistry not fully specified) guide: GTTTAAGAGCTAAGCTGGAAACAGCATAGCAAGTTTAAATAAGGCTAGTCCGTTATCAACTTTACAAAGTGGCACCGAGTCGGTGCT")
1.02
>>> assay_value("cr232 (nucleic acid, listed as DNA, chemistry not fully specified) guide: GTTTAAGAGCTAAGCTGGAAACAGCACAGCAAGTTTAAATAAGGCTAGTCCGTTATCAACTTGAAAAAGTGGCACCGAGTCGGTGCT")
1.006
>>> assay_value("cr345 (nucleic acid, listed as DNA, chemistry not fully specified) guide: GTTTAAGAGCTAAGCTGGAACCAGCATAGCAAGTTTAAATAAGGCTAGTCCGTTATCAACTTGAAAAAGTGGCACCGAGTCGGTGCT")
1.021

Values compiled from patent US20220259593A1.
